test system: rat liver mitochondria (RLM); experiment: Mitochondrial transmembrane electric potential (safranine fluorescence); format: biochemical; settings: Succinate, 5 μM
Entries and their Maximum potential (ΔΨ in - mV)
Measured Attribute: Maximum potential (ΔΨ in - mV)

- Compound: "O=C(CCCCC[P+](c1ccccc1)(c1ccccc1)c1ccccc1)NCCCCCCNC(=O)c1cc(O)c(O)c(O)c1.[Br-] [AntiOxBEN3]"
  Experimental Result: "205.3 ± 19.4 - mV"
- Compound: "O=C(NCCCCCC[P+](c1ccccc1)(c1ccccc1)c1ccccc1)c1cc(O)c(O)c(O)c1.[Br-] [AntiOxBEN2]"
  Experimental Result: "204.6 ± 18.1 - mV"
- Compound: "COC1=C(OC)C(=O)C(CCCCCCCCCC[P+](c2ccccc2)(c2ccccc2)c2ccccc2)=C(C)C1=O.CS(=O)(=O)[O-] [MitoQ, reference compound]"
  Experimental Result: "170.2 ± 8.1 - mV"
- Compound: "O=C(NCCCCCC[P+](c1ccccc1)(c1ccccc1)c1ccccc1)c1ccc(O)c(O)c1.[Br-] [AntiOxBEN1]"
  Experimental Result: "184.9 ± 13.1 - mV"
